- Tested on: A673/TR/shEF
- assay notes: cell viability (LOESS-normalised, relative to median of negative controls) (log2 ratio); higher = more viable cells (less compound effect), active = hit call of the paper (over 3 MAD below the median)
- stated conditions: 0.25 µM; library screen: screen2; EWS-FLI1 expression: high (no doxycycline); treatment time: 72 h
About 300 (9.4%) of roughly 3,200 compounds showed activity. For the sample, actives were picked, then their nearest neighbours and some compounds at random.
measured quantity: cell viability (log2)
The answer should be a number; do not append a unit.

Record lookup: for A673/TR/shEF, what cell viability (log2) belongs to Oc1cc(O)cc(/C=C/c2ccc(O)c(O)c2)c1 ? -0.0238

Also O=S(=O)(c1cccc2cnccc12)N1CCNCC1 ? 0.166

Same lookup for CSc1nc(N)c2ncn(C3OC(COP(=O)(O)OP(=O)(O)O)C(O)C3O)c2n1 (stereo unspecified) , please. 0.0889

Okay, and O=S(=O)(c1cccc2c(Cl)cccc12)N1CCCNCC1 ? 0.275

Now give it for Cc1nc2ccccn2c(=O)c1CCN1CCC(C(=O)c2ccc(F)cc2)CC1 too. 0.229

Now try Oc1ccc(/C=C/c2cc(O)cc(O)c2)cc1 . -1.5

====

- System: A673/TR/shEF
- assay notes: cell viability (LOESS-normalised, relative to median of negative controls) (log2 ratio); higher = more viable cells (less compound effect), active = hit call of the paper (over 3 MAD below the median)
- stated conditions: 2.5 µM; library screen: screen1; EWS-FLI1 expression: high (no doxycycline); treatment time: 72 h
Among all 3,200 compounds or so, about 300 (9.4%) showed activity. The full list was thinned out, with actives kept by preference.
// classify into active, inactive

For this compound, state the assay outcome: COc1cc([C@@H]2c3cc4c(cc3[C@@H](O[C@@H]3O[C@@H]5CO[C@@H](C)O[C@H]5[C@H](O)[C@H]3O)[C@H]3COC(=O)[C@H]23)OCO4)cc(OC)c1O active

Subsequent entry: CCOc1c(Br)cc(C=C(C#N)c2nn(-c3ccccc3)c(N)c2C#N)cc1OC inactive

Cool, now Oc1ccc([C@H]2Oc3cc(O)cc(O)c3C[C@H]2O)cc1 inactive

Likewise for COC(=O)C[C@H]1C(C)(C)C(=O)[C@@H]2C[C@@]3(O)C4=CC(=O)O[C@@H](c5ccoc5)[C@]4(C)CCC3[C@@]1(C)C2=O (stereo partly drawn) ? inactive

And the next one, O=C1/C(=C\c2ccccc2F)SC(=S)N1CN1CCOCC1 ? inactive

Next: COc1cc([C@@H]2c3cc4c(cc3[C@@H](O[C@@H]3O[C@@H]5CO[C@@H](c6cccs6)O[C@H]5[C@H](O)[C@H]3O)[C@H]3COC(=O)[C@H]23)OCO4)cc(OC)c1O active

Item: N#Cc1c(-c2ccc(Br)cc2)cc(-c2ccc3c(c2)OCO3)c(C#N)c1N inactive

Moving on to CC(C1OC(C)(C)C(O)C1O)[C@@H]1CC[C@]2(C)C3=CCC4C(C)(C)C(=O)CC[C@]4(C)C3CC[C@@]12C (stereo partly drawn) inactive

====

- System: A673/TR/shEF
- assay notes: cell viability (LOESS-normalised, relative to median of negative controls) (log2 ratio); higher = more viable cells (less compound effect), active = hit call of the paper (over 3 MAD below the median)
- stated conditions: 0.926 µM; library screen: screen3; EWS-FLI1 expression: high (no doxycycline); treatment time: 72 h
Out of some 3,200 compounds screened, about 300 (9.4%) showed activity. This is one part of a sample in which actives are shown more often than they occur.
// classify into 1 (yes) = active, 0 (no) = inactive

Hello, I am checking results. What call was entered for CCC(C)(C)C(=O)O[C@H]1C[C@@H](C)C=C2C=C[C@H](C)[C@H](CC[C@@H]3C[C@@H](O)CC(=O)O3)[C@H]21 ? 0 (no)

And for C=CC(=O)Nc1cc2c(Nc3ccc(F)c(Cl)c3)ncnc2cc1OCCCN1CCOCC1 ? 0 (no)

Same question, COc1cc2c(N3CCN(C(=O)Nc4ccc(OC(C)C)cc4)CC3)ncnc2cc1OCCCN1CCCCC1 this time 0 (no)

Cc1ccncc1Nc1ncccc1C(=O)Nc1ccc(C2(C#N)CCCC2)cc1 ? 0 (no)

Same question, Cc1nc(N)sc1-c1ccnc(Nc2ccc(N3CCOCC3)cc2)n1 this time 0 (no)

// same read-out, input: Cc1cn(-c2cc(NC(=O)c3ccc(C)c(Nc4nccc(-c5cccnc5)n4)c3)cc(C(F)(F)F)c2)cn1 0 (no)

Same question, CC(C)(C)C(=O)OCOP(=O)(COCCn1cnc2c(N)ncnc21)OCOC(=O)C(C)(C)C this time 0 (no)

Now try CNC[C@H](O)c1ccc(O)c(O)c1 . 0 (no)

Also Cc1c(OCC(F)(F)F)ccnc1C[S+]([O-])c1nc2ccccc2[nH]1 (centres undefined) ? 0 (no)

Repeat for the following molecule: CO[C@H]1C[C@@H]2CC[C@@H](C)[C@@](O)(O2)C(=O)C(=O)N2CCCC[C@H]2C(=O)O[C@H]([C@H](C)C[C@@H]2CC[C@@H](OCCO)[C@H](OC)C2)CC(=O)[C@H](C)/C=C(\C)[C@@H](O)[C@@H](OC)C(=O)[C@H](C)C[C@H](C)/C=C/C=C/C=C/1C 1 (yes)

Now consider CS(=O)(=O)CCNCc1ccc(-c2ccc3ncnc(Nc4ccc(OCc5cccc(F)c5)c(Cl)c4)c3c2)o1 and answer again. 0 (no)

Repeat with Clc1ccc(COC(Cn2ccnc2)c2ccc(Cl)cc2Cl)cc1 (centres undefined) 0 (no)

Here is the next molecule: CCC(C)n1ncn(-c2ccc(N3CCN(c4ccc(OC[C@H]5CO[C@](Cn6cncn6)(c6ccc(Cl)cc6Cl)O5)cc4)CC3)cc2)c1=O (some centres undefined) 0 (no)

Also check COc1cc2c(Oc3ccc4[nH]c(C)cc4c3F)ncnc2cc1OCCCN1CCCC1 0 (no)

CNC(=O)CN(CCN(CCN(CC(=O)[O-])CC(=O)NC)CC(=O)[O-])CC(=O)[O-].O.[Gd+3] , same question. 0 (no)

How about this molecule: COCCn1c2c([n+](Cc3cnccn3)c1C)C(=O)c1ccccc1C2=O 1 (yes)

CO[C@H]1C[C@@H]2CC[C@@H](C)[C@@](O)(O2)C(=O)C(=O)N2CCCC[C@H]2C(=O)O[C@H]([C@H](C)C[C@@H]2CC[C@@H](O)[C@H](OC)C2)CC(=O)[C@H](C)/C=C(\C)[C@@H](O)[C@@H](OC)C(=O)[C@H](C)C[C@H](C)/C=C/C=C/C=C/1C , same question. 1 (yes)

How about this molecule: C=CC(=O)N1CCC[C@@H](n2nc(-c3ccc(Oc4ccccc4)cc3)c3c(N)ncnc32)C1 0 (no)

Try this molecule next: CC(C)n1c(/C=C/C(O)CC(O)CC(=O)O)c(-c2ccc(F)cc2)c2ccccc21 (centres undefined) 0 (no)

Next record, please: Cn1cc(C2=C(c3ccc(Cl)cc3Cl)C(=O)NC2=O)c2ccccc21 0 (no)

Query C/C(=C\C(=O)Nc1ccccc1C(=O)O)c1ccc2ccccc2c1 next 0 (no)

Then this molecule: COc1ccc2nc([S@@+]([O-])Cc3ncc(C)c(OC)c3C)[nH]c2c1 0 (no)

Also Cc1nnc(C(C)C)n1C1C[C@H]2CC[C@@H](C1)N2CC[C@H](NC(=O)C1CCC(F)(F)CC1)c1ccccc1 (some centres undefined) , if possible. 0 (no)

For C[C@H](Cn1cnc2c(N)ncnc21)OCP(=O)(O)O then? 0 (no)

Entry CCc1c2c(nc3ccc(OC(=O)N4CCC(N5CCCCC5)CC4)cc13)-c1cc3c(c(=O)n1C2)COC(=O)[C@]3(O)CC please 1 (yes)

Also CN(C)C/C=C/C(=O)Nc1cc2c(Nc3ccc(F)c(Cl)c3)ncnc2cc1O[C@H]1CCOC1 , if possible. 0 (no)

Same again, this time with Nc1ncnc2c1ncn2[C@@H]1O[C@H](CO)[C@@H](O)[C@H]1O 0 (no)

Can you handle CC1CC2C3CCC4=CC(=O)C=CC4(C)C3C(=O)CC2(C)[C@@]1(O)C(=O)CO (some centres undefined) next? 0 (no)

And then O=C(/C=C/c1cccc(S(=O)(=O)Nc2ccccc2)c1)NO , what is it? 0 (no)

Thanks! And C=C1c2cccc(O)c2C(O)=C2C(=O)[C@]3(O)C(O)=C(C(N)=O)C(=O)[C@@H](N(C)C)[C@@H]3[C@@H](O)[C@H]12 ? 0 (no)

What about COc1cc2ncnc(Nc3ccc(F)c(Cl)c3)c2cc1OCCCN1CCOCC1 ? 0 (no)

Then what about the molecule O=C(O)C[C@H](O)C[C@H](O)/C=C/c1c(C2CC2)nc2ccccc2c1-c1ccc(F)cc1 ? 1 (yes)

Try this molecule next: C[N+]1(C)[C@@H]2CC(OC(=O)C(O)(c3cccs3)c3cccs3)C[C@H]1[C@@H]1O[C@@H]12 (some centres undefined) 0 (no)

Item: COc1cc(Nc2c(C#N)cnc3cc(OCCCN4CCN(C)CC4)c(OC)cc23)c(Cl)cc1Cl 0 (no)
